TARGET_OR_SYSTEM: IGF1R Ba/F3 (Homo sapiens, UniProt P08069)
Sequence (P08069 999-1274 limits assumed): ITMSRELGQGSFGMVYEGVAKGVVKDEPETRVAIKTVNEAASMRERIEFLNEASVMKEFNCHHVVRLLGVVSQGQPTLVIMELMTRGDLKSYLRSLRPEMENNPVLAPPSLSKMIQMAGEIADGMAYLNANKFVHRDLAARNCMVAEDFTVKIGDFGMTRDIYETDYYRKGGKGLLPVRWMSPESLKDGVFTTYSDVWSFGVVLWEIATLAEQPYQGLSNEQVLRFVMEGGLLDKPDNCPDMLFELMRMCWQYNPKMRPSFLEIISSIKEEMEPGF
ASSAY_PROTOCOL: Ba/F3 Cell Viability Inhibition Assay (Tel-TK transformed Ba/F3 lines)
Type: cell-based, murine
Parameters: the printed alternative
ASSAY_SETUP: Tel-TK (IGF1R) transformed Ba/F3 cells, 48 hours incubation, cell viability (Britelite luminescence)
# binning rule on IC50: low range: < 0.03 µM; mid range: ≥ 0.03 µM and < 0.1 µM; high range: ≥ 0.1 µM

The following compounds have reported results that may help.
Cc1cc(Nc2nc(Nc3cc(C)c(C(=O)NCCN(C)C)cc3C)ncc2Cl)n[nH]1 high range
Cc1cc(Nc2nc(Nc3cc(C)c([C@H]4CC[C@@H](N5CCOCC5)CC4)cc3C)ncc2Cl)n[nH]1 low range
Cc1cc(Nc2nc(Nc3cc(C)c([C@H]4CC[C@H](N5C[C@@H](O)[C@H](O)C5)CC4)cc3F)ncc2C(F)(F)F)n[nH]1 high range
Cc1cc(Nc2nc(Nc3cc(C)c([C@H]4CC[C@H](N5CCOCC5)CC4)cc3C)ncc2Cl)n[nH]1 low range
CNC(=O)CN1CCC(c2ccc(Nc3ncc(Cl)c(Nc4cc(C)[nH]n4)n3)c3ccccc23)CC1 mid range

Next up:
Problem: Class (by measured IC50) for Cc1cc(Nc2nc(Nc3cc(C)c(-c4ccc(O)nc4)cc3F)ncc2Cl)n[nH]1
Result: mid range

###

TARGET_OR_SYSTEM: IGF1R Ba/F3 (Homo sapiens)
ASSAY_PROTOCOL: Ba/F3 Cell Viability Inhibition Assay (Tel-TK transformed Ba/F3 lines)
Type: cell-based, murine
Set-up: most likely, as the lines are called Tel-TK) or BCR (P11274)
ASSAY_SETUP: Tel-TK (IGF1R) transformed Ba/F3 cells, 48 hours incubation, cell viability (Britelite luminescence)
QUANTITY_MEASURED: IC50 (µM)
Please respond with the number in µM and leave the unit unwritten.

IC50 recorded for this compound, Cc1cc(Nc2nc(Nc3cc(C)c(-c4cccnc4)cc3C)ncc2Cl)n[nH]1 , is 0.029

###

// values below are reported pIC50
TARGET_OR_SYSTEM: IGF1R Ba/F3 (Homo sapiens, UniProt P08069)
ASSAY_PROTOCOL: Ba/F3 Cell Viability Inhibition Assay (Tel-TK transformed Ba/F3 lines)
Assay type: cell-based, murine
Design: the printed alternative
ASSAY_SETUP: Tel-TK (IGF1R) transformed Ba/F3 cells, 48 hours incubation, cell viability (Britelite luminescence)
For clarity, pIC50 is expressed as the negative log10 of concentration in mol/L.

Known results for compounds:
COMPOUND	TARGET_OR_SYSTEM	MEASUREMENT
Cc1cc(Nc2nc(Nc3ccc(C4CCN(CCS(C)(=O)=O)CC4)c4cccnc34)ncc2Cl)n[nH]1	IGF1R Ba/F3 (Homo sapiens, UniProt P08069)	6.39
Cc1cc(Nc2nc(Nc3ccc(C4CCN(CC(N)=O)CC4)c(C)n3)ncc2Cl)n[nH]1	IGF1R Ba/F3 (Homo sapiens, UniProt P08069)	5.75
CCN(CC)[C@H]1CC[C@H](c2cc(F)c(Nc3ncc(Cl)c(Nc4cc(C)[nH]n4)n3)cc2C)CC1	IGF1R Ba/F3 (Homo sapiens, UniProt P08069)	7.51
Cc1cc(-c2cc(F)c(Nc3ncc(Cl)c(Nc4cc(C)[nH]n4)n3)cc2C)ccn1	IGF1R Ba/F3 (Homo sapiens, UniProt P08069)	7.03
Cc1cc(Nc2nc(Nc3cc(C)c([C@H]4CC[C@@H](N5CCOCC5)CC4)cc3F)ncc2Cl)n[nH]1	IGF1R Ba/F3 (Homo sapiens, UniProt P08069)	6.40

pIC50 recorded for this compound, Cc1cc(Nc2nc(Nc3cc(C)c(C4CCN(CC(N)=O)CC4)cn3)ncc2Cl)n[nH]1 , is 6.28

pIC50 recorded for this compound, Cc1cc(Nc2nc(Nc3cc(C)c(-c4cccnc4)cc3F)ncc2Cl)n[nH]1 , is 7.17

pIC50 recorded for this compound, Cc1cc(Nc2nc(Nc3cc(C)c([C@H]4CC[C@@H](N5CCNCC5)CC4)cc3F)ncc2Cl)n[nH]1 , is 7.77

pIC50 recorded for this compound, CNC(=O)c1ccc(-c2cc(C)c(Nc3ncc(Cl)c(Nc4cc(C)[nH]n4)n3)cc2C)cn1 , is 7.82

pIC50 recorded for this compound, Cc1ccc(-c2cc(F)c(Nc3ncc(Cl)c(Nc4cc(C)[nH]n4)n3)cc2C)cn1 , is 6.86

pIC50 recorded for this compound, C/C(=N\OCCN(C)C)c1cc(C)c(Nc2ncc(Cl)c(Nc3cc(C)[nH]n3)n2)cc1C , is 6.92

pIC50 recorded for this compound, Cc1cc(Nc2nc(Nc3cc(C)c([C@H]4CC[C@@H](NC5CC5)CC4)cc3C)ncc2Cl)n[nH]1 , is 7.77

pIC50 recorded for this compound, Cc1cc(Nc2nc(Nc3cc(C)c([C@H]4CC[C@H](N5CC[C@H](O)C5)CC4)cc3F)ncc2Cl)n[nH]1 , is 7.49

pIC50 recorded for this compound, Cc1cc(Nc2nc(Nc3cc(C)c([C@H]4CC[C@@H](N5CCCCC5)CC4)cc3F)ncc2Cl)n[nH]1 , is 7.68

pIC50 recorded for this compound, Cc1cc(Nc2nc(Nc3cc(C)c([C@H]4CC[C@H](O)CC4)cc3C)ncc2C(F)(F)F)n[nH]1 , is 7.60

###

TARGET_OR_SYSTEM: IGF1R Ba/F3 (Homo sapiens, UniProt P08069)
ASSAY_PROTOCOL: Ba/F3 Cell Viability Inhibition Assay (Tel-TK transformed Ba/F3 lines)
Type: cell-based, murine
Parameters: the printed alternative
ASSAY_SETUP: Tel-TK (IGF1R) transformed Ba/F3 cells, 48 hours incubation, cell viability (Britelite luminescence)
QUANTITY_MEASURED: log10 of IC50 (log10 of the value in nM)
Hey, these are logged values: log10 of IC50, nM being the unit before logging.

Known results for compounds:
Cc1cc(Nc2nc(Nc3cc(C)c(CN4CCOCC4)cc3C)ncc2Cl)n[nH]1 2.18
Cc1cc(-c2cc(C)c(Nc3ncc(Cl)c(Nc4cc(C)[nH]n4)n3)cc2C)[nH]n1 2.22
Cc1cc(Nc2nc(Nc3cc(C)c([C@H]4CC[C@H](O)CC4)cc3F)ncc2Cl)n[nH]1 2.00

log10 of IC50 recorded for this compound, Cc1cc(Nc2nc(Nc3cc(C)c([C@H]4CC[C@H](N5CCCCC5)CC4)cc3C)ncc2Cl)n[nH]1 , is 0.85

log10 of IC50 recorded for this compound, Cc1cc(Nc2nc(Nc3cc(C)c([C@H]4CC[C@H](N5C[C@H](O)[C@@H](O)C5)CC4)cc3F)ncc2C(F)(F)F)n[nH]1 , is 2.48

log10 of IC50 recorded for this compound, Cc1cc(Nc2nc(Nc3cc(C)c([C@H]4CC[C@@H](N5CCN(C)CC5)CC4)cc3F)ncc2Cl)n[nH]1 , is 1.38

log10 of IC50 recorded for this compound, Cc1cc(Nc2nc(Nc3cc(C)c([C@H]4CC[C@@H](N5CCOCC5)CC4)cc3C)ncc2C(F)(F)F)n[nH]1 , is 1.15

log10 of IC50 recorded for this compound, Cc1cc(Nc2nc(Nc3cc(C)c([C@H]4CC[C@@H](N5C[C@@H](O)[C@H](O)C5)CC4)cc3F)ncc2C(F)(F)F)n[nH]1 , is 2.04

log10 of IC50 recorded for this compound, C/C(=N\O)c1cc(C)c(Nc2ncc(Cl)c(Nc3cc(C)[nH]n3)n2)cc1C , is 1.71

log10 of IC50 recorded for this compound, Cc1cc(Nc2nc(Nc3cc(C)c([C@H]4CC[C@@H](N5CCCCC5)CC4)cc3C)ncc2Cl)n[nH]1 , is 0.90

log10 of IC50 recorded for this compound, Cc1cc(Nc2nc(Nc3cc(C)c(-c4cnc5ccccc5c4)cc3F)ncc2Cl)n[nH]1 , is 2.76

log10 of IC50 recorded for this compound, Cc1cc(Nc2nc(Nc3cc(C)c([C@H]4CC[C@H](N5CCOCC5)CC4)cc3F)ncc2Cl)n[nH]1 , is 1.49

log10 of IC50 recorded for this compound, Cc1cc(Nc2nc(Nc3cc(C)c(-c4nccn4C)cc3C)ncc2Cl)n[nH]1 , is 1.85

log10 of IC50 recorded for this compound, Cc1cc(Nc2nc(Nc3cc(C)c([C@H]4CC[C@H](N5CCCCC5)CC4)cc3C)ncc2C(F)(F)F)n[nH]1 , is 0.48

log10 of IC50 recorded for this compound, Cc1cc(-c2cc(C)c(Nc3ncc(Cl)c(Nc4cc(C)[nH]n4)n3)cc2C)ccn1 , is 1.59

###

TARGET_OR_SYSTEM: IGF1R Ba/F3 (Homo sapiens)
ASSAY_PROTOCOL: Ba/F3 Cell Viability Inhibition Assay (Tel-TK transformed Ba/F3 lines)
Format: cell-based, murine
Design: the printed alternative
ASSAY_SETUP: Tel-TK (IGF1R) transformed Ba/F3 cells, 48 hours incubation, cell viability (Britelite luminescence)
# binning rule on IC50: low: < 40 nM; medium: ≥ 40 nM and < 100 nM; high: ≥ 100 nM

The following compounds have reported results that may help.
COMPOUND	CLASS_NAME
Cc1cc(Nc2nc(Nc3ccc(C4CCNCC4)c4ccccc34)ncc2Cl)n[nH]1	high
Cc1cc(Nc2nc(Nc3cc(C)c(C(=O)N4CCOCC4)cc3C)ncc2Cl)n[nH]1	high

Problem: Class (by measured IC50) for Cc1cc(Nc2nc(Nc3cc(C)c([C@H]4CC[C@H](N5CCCCC5)CC4)cc3F)ncc2C(F)(F)F)n[nH]1
Result: low

Problem: Class (by measured IC50) for Cc1cc(Nc2nc(Nc3cc(C)c([C@H]4CC[C@@H](O)CC4)cc3F)ncc2Cl)n[nH]1
Result: low

Problem: Class (by measured IC50) for Cc1cc(Nc2nc(Nc3cc(C)c([C@H]4CC[C@H](N5CCOCC5)CC4)cc3F)ncc2C(F)(F)F)n[nH]1
Result: low

Problem: Class (by measured IC50) for Cc1cc(Nc2nc(Nc3cc(C)c(-c4ccc5c(c4)CCN(C)C5)cc3C)ncc2Cl)n[nH]1
Result: medium

Problem: Class (by measured IC50) for Cc1cc(Nc2nc(Nc3cc(C)c(-c4cnco4)cc3C)ncc2Cl)n[nH]1
Result: high
